Listed compounds paired with reported λmax Absorp.
assay: Absorbance and fluorescence emission spectra (SpectraMax M2); type: physicochemical; settings: BDC library, Table 2
quantity kind: λmax Absorp.

* Cc1cccc(-c2cn(-c3ccc4n3[B-](F)(F)[N+]3=C(N5CCCCC5)C=CC3=C4c3ccc(N)cc3)nn2)c1 | 469 nm
* Nc1ccc(C2=C3C=CC(N4CCCCC4)=[N+]3[B-](F)(F)n3c2ccc3-n2cc(CC3CCCC3)nn2)cc1 | 476 nm
* Nc1ccc(C2=C3C=CC(N4CCCCC4)=[N+]3[B-](F)(F)n3c2ccc3-n2cc(CO)nn2)cc1 | 474 nm
* Cc1ccc(-c2cn(-c3ccc4n3[B-](F)(F)[N+]3=C(N5CCCCC5)C=CC3=C4c3ccc(N)cc3)nn2)cc1 | 470 nm
* CCCCCCCCc1cn(-c2ccc3n2[B-](F)(F)[N+]2=C(N4CCCCC4)C=CC2=C3c2ccc(N)cc2)nn1 | 475 nm
* Nc1ccc(C2=C3C=CC(N4CCCCC4)=[N+]3[B-](F)(F)n3c2ccc3-n2cc(-c3ccc(OC(F)(F)F)cc3)nn2)cc1 | 469 nm
* Nc1ccc(C2=C3C=CC(N4CCCCC4)=[N+]3[B-](F)(F)n3c2ccc3-n2cc(CC3CCCCC3)nn2)cc1 | 473 nm
* COc1ccc2cc(-c3cn(-c4ccc5n4[B-](F)(F)[N+]4=C(N6CCCCC6)C=CC4=C5c4ccc(N)cc4)nn3)ccc2c1 | 472 nm
* Nc1ccc(C2=C3C=CC(N4CCCCC4)=[N+]3[B-](F)(F)n3c2ccc3-n2cc(C3CCCC3)nn2)cc1 | 476 nm
* Nc1ccc(C2=C3C=CC(N4CCCCC4)=[N+]3[B-](F)(F)n3c2ccc3-n2cc(C3CC3)nn2)cc1 | 475 nm
* CC(C)CCc1cn(-c2ccc3n2[B-](F)(F)[N+]2=C(N4CCCCC4)C=CC2=C3c2ccc(N)cc2)nn1 | 476 nm
* CCCCc1cn(-c2ccc3n2[B-](F)(F)[N+]2=C(N4CCCCC4)C=CC2=C3c2ccc(N)cc2)nn1 | 473 nm
* CCCCCCCCCCc1cn(-c2ccc3n2[B-](F)(F)[N+]2=C(N4CCCCC4)C=CC2=C3c2ccc(N)cc2)nn1 | 475 nm
* CN(C)c1ccc(-c2cn(-c3ccc4n3[B-](F)(F)[N+]3=C(N5CCCCC5)C=CC3=C4c3ccc(N)cc3)nn2)cc1 | 475 nm
* Nc1ccc(C2=C3C=CC(N4CCCCC4)=[N+]3[B-](F)(F)n3c2ccc3-n2cc(-c3cccc(F)c3)nn2)cc1 | 470 nm
* CN(Cc1ccccc1)Cc1cn(-c2ccc3n2[B-](F)(F)[N+]2=C(N4CCCCC4)C=CC2=C3c2ccc(N)cc2)nn1 | 471 nm
* Nc1ccc(C2=C3C=CC(N4CCCCC4)=[N+]3[B-](F)(F)n3c2ccc3-n2cc(C3CCCCC3)nn2)cc1 | 473 nm
* Nc1ccc(C2=C3C=CC(N4CCCCC4)=[N+]3[B-](F)(F)n3c2ccc3-n2cc(-c3ccc(F)cc3F)nn2)cc1 | 473 nm
* Nc1ccc(C2=C3C=CC(N4CCCCC4)=[N+]3[B-](F)(F)n3c2ccc3-n2cc(CCc3ccccc3)nn2)cc1 | 476 nm
* CC(C)Cc1cn(-c2ccc3n2[B-](F)(F)[N+]2=C(N4CCCCC4)C=CC2=C3c2ccc(N)cc2)nn1 | 476 nm
* Nc1ccc(C2=C3C=CC(N4CCCCC4)=[N+]3[B-](F)(F)n3c2ccc3-n2cc(C3=CCCCC3)nn2)cc1 | 474 nm
* CCc1ccc(-c2cn(-c3ccc4n3[B-](F)(F)[N+]3=C(N5CCCCC5)C=CC3=C4c3ccc(N)cc3)nn2)cc1 | 473 nm
* Nc1ccc(C2=C3C=CC(N4CCCCC4)=[N+]3[B-](F)(F)n3c2ccc3-n2cc(-c3cc(C(F)(F)F)cc(C(F)(F)F)c3)nn2)cc1 | 466 nm
* Nc1ccc(C2=C3C=CC(N4CCCCC4)=[N+]3[B-](F)(F)n3c2ccc3-n2cc(C3(O)CCCC3)nn2)cc1 | 478 nm
* CCCC(C)c1cn(-c2ccc3n2[B-](F)(F)[N+]2=C(N4CCCCC4)C=CC2=C3c2ccc(N)cc2)nn1 (stereo not shown) | 475 nm
* CCCc1cn(-c2ccc3n2[B-](F)(F)[N+]2=C(N4CCCCC4)C=CC2=C3c2ccc(N)cc2)nn1 | 476 nm
* COc1cccc(-c2cn(-c3ccc4n3[B-](F)(F)[N+]3=C(N5CCCCC5)C=CC3=C4c3ccc(N)cc3)nn2)c1 | 472 nm
* CC(C)(C)c1cn(-c2ccc3n2[B-](F)(F)[N+]2=C(N4CCCCC4)C=CC2=C3c2ccc(N)cc2)nn1 | 475 nm

====

Listed molecules paired with reported λmax Absorp. (nm)
assay: Absorbance and fluorescence emission spectra (SpectraMax M2); assay type: physicochemical; settings: MKCA compound library; absorbance maximum
quantity kind: λmax Absorp. (nm)

• CCCC(C)c1cn(-c2ccc3n2[B-](F)(F)[N+]2=C(N4CC(C)OC(C)C4)C=CC2=C3c2ccc(NC(=O)CCl)cc2)nn1 (stereo not drawn) = 467
• COc1ccc(OC)c(CNC2=[N+]3C(=C(c4ccc(NC(=O)CCl)cc4)c4ccc(-n5cc(CN(C)Cc6ccccc6)nn5)n4[B-]3(F)F)C=C2)c1 = 462
• CCCCCC(O)c1cn(-c2ccc3n2[B-](F)(F)[N+]2=C(NCc4ccccc4OCC)C=CC2=C3c2ccc(NC(=O)CCl)cc2)nn1 (stereo not drawn) = 465
• CN(Cc1ccccc1)Cc1cn(-c2ccc3n2[B-](F)(F)[N+]2=C(NCc4cc(F)cc(F)c4)C=CC2=C3c2ccc(NC(=O)CCl)cc2)nn1 = 463
• CCOc1ccccc1CNC1=[N+]2C(=C(c3ccc(NC(=O)CCl)cc3)c3ccc(-n4cc(CO)nn4)n3[B-]2(F)F)C=C1 = 463
• O=C(CCl)Nc1ccc(C2=C3C=CC(NCc4cc(F)cc(F)c4)=[N+]3[B-](F)(F)n3c2ccc3-n2cc(CO)nn2)cc1 = 464

====

test: Quantum yield measurements versus Acridine Yellow in EtOH; format: physicochemical; details: MKAC compound library; quantum yield
Listed molecules paired with reported φ (%)
quantity kind: φ (%)

* CC(=O)Nc1ccc(C2=C3C=CC(N4CCCC4)=[N+]3[B-](F)(F)n3c2ccc3-n2cc(CC3CCCCC3)nn2)cc1 | 1.17
* CCOc1ccccc1CNC1=[N+]2C(=C(c3ccc(NC(C)=O)cc3)c3ccc(-n4cc(C5CC5)nn4)n3[B-]2(F)F)C=C1 | 24.86
* CC(=O)Nc1ccc(C2=C3C=CC(N4CCc5ccccc5C4)=[N+]3[B-](F)(F)n3c2ccc3-n2cc(CN(C)Cc3ccccc3)nn2)cc1 | 1.56
* CC(=O)Nc1ccc(C2=C3C=CC(NCc4ccccc4C)=[N+]3[B-](F)(F)n3c2ccc3-n2cc(C3CC3)nn2)cc1 | 23.84
* CC(=O)Nc1ccc(C2=C3C=CC(N4CCCC4)=[N+]3[B-](F)(F)n3c2ccc3-n2cc(CCc3ccccc3)nn2)cc1 | 3.41
* CCCc1cn(-c2ccc3n2[B-](F)(F)[N+]2=C(NCc4ccccc4C)C=CC2=C3c2ccc(NC(C)=O)cc2)nn1 | 17.25

====

assay: Quantum yield measurements versus Acridine Yellow in EtOH; format: physicochemical; settings: BDCAC library, Table 3; excitation 460 nm
Rule: φ (quantum yield) below 1% gives criterion met. Equal to or above 1% gives criterion not met.

* CC(=O)Nc1ccc(C2=C3C=CC(N4CCCCC4)=[N+]3[B-](F)(F)n3c2ccc3-n2cc(CC3CCCCC3)nn2)cc1 | criterion met
* CC(=O)Nc1ccc(C2=C3C=CC(N4CCCCC4)=[N+]3[B-](F)(F)n3c2ccc3-n2cc(-c3ccc(C)cc3)nn2)cc1 | criterion not met
* CCCCCCc1cn(-c2ccc3n2[B-](F)(F)[N+]2=C(N4CCCCC4)C=CC2=C3c2ccc(NC(C)=O)cc2)nn1 | criterion not met
* CC(=O)Nc1ccc(C2=C3C=CC(N4CCCCC4)=[N+]3[B-](F)(F)n3c2ccc3-n2cc(CCc3ccccc3)nn2)cc1 | criterion met
* CC(=O)Nc1ccc(C2=C3C=CC(N4CCCCC4)=[N+]3[B-](F)(F)n3c2ccc3-n2cc(-c3ccc(-c4ccccc4)cc3)nn2)cc1 | criterion not met
* CC(=O)Nc1ccc(C2=C3C=CC(N4CCCCC4)=[N+]3[B-](F)(F)n3c2ccc3-n2cc(C(C)(C)C)nn2)cc1 | criterion not met
* CC(=O)Nc1ccc(C2=C3C=CC(N4CCCCC4)=[N+]3[B-](F)(F)n3c2ccc3-n2cc(C3CC3)nn2)cc1 | criterion not met
* CCCCc1ccc(-c2cn(-c3ccc4n3[B-](F)(F)[N+]3=C(N5CCCCC5)C=CC3=C4c3ccc(NC(C)=O)cc3)nn2)cc1 | criterion not met
* CC(=O)Nc1ccc(C2=C3C=CC(N4CCCCC4)=[N+]3[B-](F)(F)n3c2ccc3-n2cc(CC3CCCC3)nn2)cc1 | criterion not met
* CCCc1cn(-c2ccc3n2[B-](F)(F)[N+]2=C(N4CCCCC4)C=CC2=C3c2ccc(NC(C)=O)cc2)nn1 | criterion not met
* CCCCCc1ccc(-c2cn(-c3ccc4n3[B-](F)(F)[N+]3=C(N5CCCCC5)C=CC3=C4c3ccc(NC(C)=O)cc3)nn2)cc1 | criterion not met
* CC(=O)Nc1ccc(C2=C3C=CC(N4CCCCC4)=[N+]3[B-](F)(F)n3c2ccc3-n2cc(-c3ccc(N(C)C)cc3)nn2)cc1 | criterion met
* CC(=O)Nc1ccc(C2=C3C=CC(N4CCCCC4)=[N+]3[B-](F)(F)n3c2ccc3-n2cc(-c3ccc(C(C)(C)C)cc3)nn2)cc1 | criterion not met
